Result type: melting point

Task: Fill in: melting point of COc1cc(OC)nc(NC(=O)NS(=O)(=O)Nc2nc(OC)cc(OC)n2)n1 is ___
Output: 210 °C

Task: Fill in: melting point of CC(C(=O)O)n1ccc2c(OCc3ccccc3)cccc21 (stereo not drawn) is ___
Output: 143 to 146 °C

Task: Fill in: melting point of CC(=O)C1=C(O)C(=C(C)Nc2ccc(NC(N)=O)cc2)C(=O)OC1=O is ___
Output: 250 to 253 °C

Task: Fill in: melting point of Cc1cc(C(=O)NCc2ccccc2)c(N)s1 is ___
Output: 170 °C

Task: Fill in: melting point of CCNC(=O)C1CC(=O)N(Cc2ccccc2)C1 (stereo not drawn) is ___
Output: 97 to 99 °C

Task: Fill in: melting point of COc1cc(NC2=C(Cl)C(=O)c3ccccc3C2=O)ccc1S(=O)(=O)Nc1ccc(C)cc1 is ___
Output: 186 to 189 °C

Task: Fill in: melting point of CCOC(=O)C=Cc1ccc(OCCN(C)c2ccccn2)cc1 is ___
Output: 80 to 81 °C

Task: Fill in: melting point of O=C1c2ccccc2C(=O)C1c1ccncn1 is ___
Output: 168 to 169 °C

Task: Fill in: melting point of CC(=O)Nc1cccc(N(C)C)n1 is ___
Output: 118 to 119 °C

Task: Fill in: melting point of CCOC(=O)c1cnoc1-c1ccc(OC)cc1 is ___
Output: 54 to 55 °C

Task: Fill in: melting point of COc1cc2c(cc1OC)CN(CCCCc1ccc(NC(=O)c3cccc4c(=O)c5cccc(C)c5[nH]c34)cc1)CC2 is ___
Output: 140 °C

Task: Fill in: melting point of CCN(C(=O)C1CC1)c1cn(-c2cccnc2)nc1Cl is ___
Output: 111 to 119 °C

Task: Fill in: melting point of COC(=O)c1ccc2oc(=S)[nH]c2c1 is ___
Output: 218 to 221 °C

Task: Fill in: melting point of CCCCCCCCCCCCCCCC(=O)N1C[C@H](O)C[C@H]1C(=O)OCCCCCCCCCCCC is ___
Output: 39 to 44 °C

Task: Fill in: melting point of CC(=O)Oc1ccc(C(=O)O)c2ccccc12 is ___
Output: 182 to 184 °C

Task: Fill in: melting point of CN(C)N=C1CCC2C3CCc4cc(O[Si](C)(C)C(C)(C)C)ccc4C3CCC12C (stereo not drawn) is ___
Output: 100 to 103 °C

Task: Fill in: melting point of O=C(Nc1ccc2ccc(Cl)nc2n1)c1cscn1 is ___
Output: 325 °C

Task: Fill in: melting point of O=C(Cl)C(=O)N1CCOC1=O is ___
Output: 57 °C

###

Can you tell me melting point for the items I'm about to list?

Task: Fill in: melting point of O=c1[nH]c2c(c(O)c1[N+](=O)[O-])CCCCC2 is ___
Output: > 264 °C

Task: Fill in: melting point of NC(=O)c1cn(-c2ccc(Cl)c(Cl)c2)cn1 is ___
Output: 244 to 245 °C

Task: Fill in: melting point of c1ccc2[nH]c(Cn3ccnc3)nc2c1 is ___
Output: 198 to 200 °C

Task: Fill in: melting point of CC(C)N1C(=O)C(NC(=O)Cc2cc(Cl)cc(Cl)c2)C(=O)N(CC(F)(F)F)c2ccccc21 (stereo unspecified) is ___
Output: 185 to 186 °C

Task: Fill in: melting point of O=c1c2cc(O)c(O)cc2c2cc(O)c(O)cc2n1Cc1ccc(Cl)c(Cl)c1 is ___
Output: 318 °C

Task: Fill in: melting point of Cc1c(NC(=O)c2ccc(OCc3ccccc3)cc2)ccc2cc(CN3CCCCC3)cnc12 is ___
Output: 186 to 187 °C

Task: Fill in: melting point of c1cnc2ccc(Nc3nccc(-c4ccc(N5CCNCC5)nc4)n3)cc2c1 is ___
Output: 199 to 200 °C

Task: Fill in: melting point of CC(=O)C(Cl)=NNc1ccccc1 is ___
Output: 132 to 134 °C

Task: Fill in: melting point of Nc1sc2c(c1C(=O)c1ccc(Br)s1)CCC2 is ___
Output: 154 to 156 °C

Task: Fill in: melting point of CCOC(=O)COc1ccc2cc(-c3oc4ccccc4c3CCC3CCCC3)ccc2c1Br is ___
Output: 115 to 120 °C

Task: Fill in: melting point of Oc1ccc2c(c1)CC(NCC(O)c1cccc(Cl)c1)CC2 (stereo unspecified) is ___
Output: 175 °C

Task: Fill in: melting point of OC(c1ccc(Cl)cc1)(c1ccc(Cl)cc1)C1CO1 (stereo unspecified) is ___
Output: 87 to 88 °C

Task: Fill in: melting point of CC(=O)c1cc2c(s1)CCC1CC(=O)N(c3ccc(C)cc3)N=C21 (stereo unspecified) is ___
Output: 191 to 193 °C

Task: Fill in: melting point of CCS(=O)(=O)Nc1ccc(F)cc1Br is ___
Output: 79 to 81 °C

Task: Fill in: melting point of CC(=O)Cc1ccc(CC2SC(=O)NC2=O)cc1 (stereo unspecified) is ___
Output: 133 to 135 °C

Task: Fill in: melting point of C#CCNC(=O)c1ccc(C(=O)OC)cc1 is ___
Output: 152 to 153 °C
